Consider the following molecules; for each one, report its pIC50.
system under test: Decaprenyl diphosphate synthase (Mycobacterium tuberculosis (strain CDC 1551 / Oshkosh))
Sequence (P9WFF6 whole entry): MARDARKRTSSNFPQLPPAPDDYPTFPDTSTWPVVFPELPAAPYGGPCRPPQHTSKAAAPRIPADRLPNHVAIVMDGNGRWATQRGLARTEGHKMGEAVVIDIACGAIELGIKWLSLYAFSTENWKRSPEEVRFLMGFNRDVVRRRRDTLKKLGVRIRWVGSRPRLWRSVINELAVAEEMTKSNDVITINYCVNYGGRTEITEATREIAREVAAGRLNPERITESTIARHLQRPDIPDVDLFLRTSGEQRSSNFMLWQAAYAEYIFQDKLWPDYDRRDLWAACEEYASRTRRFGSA
experimental protocol: DPPS Inhibition (trans FPP based) Assay
condition notes: pH 7.5
Description: We screened an in-house library of 53 compounds using trans-FPP as substrate.
In textbook form, pIC50 equals minus log to base ten of the concentration in mol/L.

Would you mind telling me what pIC50 value was observed for O=P(O)(O)C(O)(Cc1ccc(-c2cccc(NS(=O)(=O)c3ccc4ccccc4c3)c2)cc1)P(=O)(O)O [BPH-780] ? 5.42

Would you mind telling me what pIC50 value was observed for O=P(O)(O)C(O)(Cc1ccc(-c2ccc(Cl)cc2)cc1)P(=O)(O)O ? 5.82

Would you mind telling me what pIC50 value was observed for O=P(O)(O)C(O)(Cc1cccc(-c2cccc(NS(=O)(=O)c3ccc(-c4ccccc4)cc3)c2)c1)P(=O)(O)O [BPH-782] ? 4.64

Would you mind telling me what pIC50 value was observed for O=P(O)(O)C(C[n+]1ccc(-c2cccc3c2oc2ccccc23)cc1)P(=O)(O)O [BPH-642] ? 3.94

Would you mind telling me what pIC50 value was observed for O=P(O)(O)C(O)(Cc1cccc(-c2ccc(F)cc2F)c1)P(=O)(O)O ? 5.37

Would you mind telling me what pIC50 value was observed for O=P(O)(O)C(O)(Cc1ccc(-c2cccc(NS(=O)(=O)c3ccc(-c4ccccc4)cc3)c2)cc1)P(=O)(O)O [BPH-781] ? 4.18

Would you mind telling me what pIC50 value was observed for O=P(O)(O)C(O)(c1ccc(-c2ccccc2)cc1)P(=O)(O)O ? 4.77

Would you mind telling me what pIC50 value was observed for CCCCCCCCc1cc[n+](CC(P(=O)(O)O)P(=O)(O)O)cc1 [BPH-717] ? 3.95

* * *

system under test: Decaprenyl diphosphate synthase (Mycobacterium tuberculosis (strain CDC 1551 / Oshkosh))
experimental protocol: DPPS Inhibition (GPP based) Assay
condition notes: pH 7.5
# strict inequality: IC50 < 0.8 µM yields TRUE, everything else yields FALSE

Identify whether the molecule CCCCCCCCOc1cccc(C(=O)Nc2cc(S(C)(=O)=O)ccc2C(=O)O)c1 [BPH-1467] records IC50 below 0.8 µM. TRUE

Identify whether the molecule CCCCCCC1=C(C[N+](C)(C)C)C(=O)c2ccccc2C1=O [BPH-1474] records IC50 below 0.8 µM. FALSE

Identify whether the molecule O=C(O)c1ccccc1SCc1cccc(Oc2ccccc2)c1 [BPH-1125] records IC50 below 0.8 µM. FALSE

Identify whether the molecule CCCCCCCCOc1cc(O)cc(COc2ccc(Br)cc2C(=O)O)c1 [BPH-1311] records IC50 below 0.8 µM. FALSE

Identify whether the molecule CCCCCCCCOc1cccc(C(=O)Nc2cc(F)c(F)cc2C(=O)O)c1 [BPH-1455] records IC50 below 0.8 µM. TRUE

Identify whether the molecule CCn1c2ccccc2c2cc(NC(=O)/C=C(\O)C(=O)O)ccc21 [BPH-1149] records IC50 below 0.8 µM. FALSE

Identify whether the molecule O=C(/C=C/c1ccc(O)c(O)c1)OC1CC(O)(C(=O)O)CC(O)C1O (stereo unspecified) [BPH-1068] records IC50 below 0.8 µM. FALSE

Identify whether the molecule CCCCCCCCCCOc1cccc(COc2ccc(S(=O)(=O)N3CCN(C(C)=O)CC3)cc2C(=O)O)c1 [BPH-1165] records IC50 below 0.8 µM. FALSE

Identify whether the molecule O=P(O)(O)C(O)(Cc1cccc(-c2cccc(NS(=O)(=O)c3cccc(S(=O)(=O)Nc4cccc(-c5cccc(CC(O)(P(=O)(O)O)P(=O)(O)O)c5)c4)c3)c2)c1)P(=O)(O)O [BPH-789] records IC50 below 0.8 µM. TRUE

Identify whether the molecule CC(C)=CCC/C(C)=C/COc1ccc(C(=O)/C=C(\O)C(=O)O)cc1 [BPH-1379] records IC50 below 0.8 µM. FALSE

Identify whether the molecule CCCCCCCCOc1cccc(C(=O)Nc2ccc(Cl)cc2C(=O)O)c1 [BPH-1466] records IC50 below 0.8 µM. TRUE

Identify whether the molecule C/C=C\C(=C/CC(=O)Nc1ccc(OC(F)(F)F)cc1C(=O)O)OCCCCCCCC [BPH-1477] records IC50 below 0.8 µM. TRUE

Identify whether the molecule CCCCCCCCOc1ccc(F)c(C(=O)Nc2ccc(F)cc2C(=O)O)c1 [BPH-1485] records IC50 below 0.8 µM. TRUE

Identify whether the molecule NCCc1cc(Br)cc(C#Cc2ccc(C#Cc3cc(Br)cc(CCN)c3)cc2)c1 [BPH-1419] records IC50 below 0.8 µM. TRUE

Identify whether the molecule C=CCC(/C=C/C(=O)Nc1ccc(F)cc1C(=O)O)OCCCCCCCC (stereo unspecified) [BPH-1463] records IC50 below 0.8 µM. TRUE

Identify whether the molecule CCCCCCCCCCCCCCOc1cc([N+](=O)[O-])ccc1C(=O)O [BPH-965] records IC50 below 0.8 µM. FALSE

Identify whether the molecule CCCCCCCCOc1ccc(C(=O)/C=C(\O)C(=O)O)cc1 [BPH-1330] records IC50 below 0.8 µM. FALSE

Identify whether the molecule O=C(Nc1ccc(CCC2=NCCN2)cc1)c1ccc(C(=O)Nc2ccc(CCC3=NCCN3)cc2)cc1 [BPH-1413] records IC50 below 0.8 µM. FALSE

Identify whether the molecule CCCCCCCCCCOc1cccc(C(=O)Nc2ccc(S(N)(=O)=O)cc2C(=O)O)c1 [BPH-1256] records IC50 below 0.8 µM. TRUE

Identify whether the molecule CCCCCCCCCCOc1cc(C(=O)Nc2ccc(S(N)(=O)=O)cc2C(=O)O)cc(C(=O)OC)c1 [BPH-1257] records IC50 below 0.8 µM. FALSE

Identify whether the molecule CCCCCCCCOc1cccc(C(=O)Nc2ccccc2P(=O)(O)O)c1 [BPH-1440] records IC50 below 0.8 µM. TRUE

Identify whether the molecule CCCCCCCCOc1cccc(C(=O)Nc2cccc(P(=O)(O)O)c2)c1 [BPH-1432] records IC50 below 0.8 µM. TRUE

Identify whether the molecule CCCCCCCCOc1cccc(C(=O)Nc2cc(OC)c(OC)cc2C(=O)O)c1 [BPH-1294] records IC50 below 0.8 µM. TRUE

Identify whether the molecule CCCCCCCCOc1cccc(CNC(=O)/C=C(\O)C(=O)O)c1 [BPH-1305] records IC50 below 0.8 µM. FALSE

Identify whether the molecule NCCc1cccc(C#Cc2ccc(C#Cc3cccc(CCN)c3)cc2)c1 [BPH-1427] records IC50 below 0.8 µM. FALSE

Identify whether the molecule CCCCCCCCOc1cccc(C(=O)Nc2ccc(Br)cc2C(=O)O)c1 [BPH-1264] records IC50 below 0.8 µM. TRUE

Identify whether the molecule O=P(O)(O)C(O)(c1cccc(-c2cccc(-c3ccccc3)c2)c1)P(=O)(O)O [BPH-640] records IC50 below 0.8 µM. TRUE

Identify whether the molecule CCCCCCCCOc1cccc(C(=O)N(C)c2cccc(P(=O)(O)O)c2)c1 [BPH-1433] records IC50 below 0.8 µM. TRUE

Identify whether the molecule CCCCCCCCOc1cccc(P(=O)(CC(=O)C(=O)O)OCC)c1 (stereo unspecified) [BPH-1389] records IC50 below 0.8 µM. FALSE

Identify whether the molecule CCCCCCCCCCCCOc1cccc(O)c1C(=O)O [BPH-1065] records IC50 below 0.8 µM. FALSE

Identify whether the molecule NC(=O)c1cc(NC(=O)c2ccc(C(=O)Nc3cc(C(N)=O)cc(C4=NCCN4)c3)cc2)cc(C2=NCCN2)c1 [100873, 18] records IC50 below 0.8 µM. FALSE

Identify whether the molecule CCCCCCOc1ccc(C(=O)/C=C(\O)C(=O)O)cc1 [BPH-1378] records IC50 below 0.8 µM. FALSE

Identify whether the molecule CCCCCCCOc1cccc(C(=O)Nc2ccccc2C(=O)O)c1 [BPH-1167] records IC50 below 0.8 µM. TRUE

Identify whether the molecule CCCCCCCCOc1cccc(C(=O)Nc2cccc(C(=O)O)c2C(O)O)c1 [BPH-1461] records IC50 below 0.8 µM. TRUE

Identify whether the molecule CCCCCCCCOc1cccc(COc2ccc(S(=O)(=O)N3CCOCC3)cc2C(=O)O)c1 [BPH-1158] records IC50 below 0.8 µM. FALSE

Identify whether the molecule CCCCCCCCCCOc1cccc(COc2ccccc2C(=O)O)c1 [BPH-1150] records IC50 below 0.8 µM. TRUE

Data origin, for the record: BindingDB's records for doi:10.1111/cbdd.12463
